# protocol.details: Stability of PSA substrates in serum (AMC release)
# Assay type: in vitro ADME
# applied.conditions: 0.2 mM substrate
Starred links: 1 amine or outer side, 2 acyl side, 3 side chain; linkers in the order of their positions; H or OH if unused. Residues, ends and D or L forms follow the SMILES beside them. *: point of attachment. AMC = Cc1cc(=O)oc2cc(N*)ccc12; Morpholide = C1CN(*)CCO1; CO = O=C([*:1])[*:2]
measured.parameter: picomles AMC released/minute: Rat (picomoles/minute)
The answer is to be given in picomoles/minute; state only the numeric part.

Here's what some known entries look like.
Cc1cc(=O)oc2cc(NC(=O)[C@H](Cc3c[nH]cn3)NC(=O)[C@H](CCC(N)=O)NC(=O)[C@H](CCCCN)NC(=O)[C@H](CO)NC(=O)[C@H](CCCCN)NC(=O)[C@@H](NC(=O)[C@H](C)NC(=O)N3CCOCC3)[C@@H](C)O)ccc12 [ATKSKQH, Ala-Thr-Lys-Ser-Lys-Gln-His] ({Morpholide-CO}-ATKSKQH-{AMC}) = 4.31
CC[C@H](C)[C@H](NC(=O)[C@H](CCCCN)NC(=O)[C@H](CC(N)=O)NC(=O)[C@H](CCC(=O)O)NC(=O)N1CCOCC1)C(=O)N[C@@H](CO)C(=O)N[C@@H](Cc1ccc(O)cc1)C(=O)N[C@@H](CCC(N)=O)C(=O)Nc1ccc2c(C)cc(=O)oc2c1 [ENKISYQ, Glu-Asn-Lys-Ile-Ser-Tyr-Gln] ({Morpholide-CO}-ENKISYQ-{AMC}) = 11.2
CC[C@H](C)[C@H](NC(=O)[C@H](CCCCN)NC(=O)[C@H](CC(N)=O)NC(=O)[C@H](CCC(N)=O)NC(=O)N1CCOCC1)C(=O)N[C@@H](CO)C(=O)N[C@@H](Cc1ccc(O)cc1)C(=O)N[C@@H](CCC(N)=O)C(=O)Nc1ccc2c(C)cc(=O)oc2c1 [QNKISYQ, Gln-Asn-Lys-Ile-Ser-Tyr-Gln] ({Morpholide-CO}-QNKISYQ-{AMC}) = 10.7

Here's the next entry for you.
Lab book: picomles AMC released/minute: Rat of Cc1cc(=O)oc2cc(NC(=O)[C@H](CCC(N)=O)NC(=O)[C@H](CC(C)C)NC(=O)[C@H](CCCCN)NC(=O)[C@H](CO)NC(=O)[C@H](CO)NC(=O)[C@H](Cc3c[nH]cn3)NC(=O)[C@H](CCC(=O)O)NC(=O)N3CCOCC3)ccc12 [EHSSKLQ, Glu-His-Ser-Ser-Lys-Leu-Gln] ({Morpholide-CO}-EHSSKLQ-{AMC}) noted as 0.06

###

# protocol.details: Stability of PSA substrates in serum (AMC release)
# Type: in vitro ADME
# applied.conditions: 0.2 mM substrate
Starred links: 1 amine or outer side, 2 acyl side, 3 side chain; linkers in the order of their positions; H or OH if unused. Residues, ends and D or L forms follow the SMILES beside them. *: point of attachment. AMC = Cc1cc(=O)oc2cc(N*)ccc12; Morpholide = C1CN(*)CCO1; CO = O=C([*:1])[*:2]
measured.parameter: picomles AMC released/minute: Goat (picomoles/minute)
The answer is to be given in picomoles/minute; state only the numeric part.

CC[C@H](C)[C@H](NC(=O)[C@H](CCCCN)NC(=O)[C@H](CC(N)=O)NC(=O)[C@H](CCC(=O)O)NC(=O)N1CCOCC1)C(=O)N[C@@H](CO)C(=O)N[C@@H](Cc1ccc(O)cc1)C(=O)N[C@@H](CCC(N)=O)C(=O)Nc1ccc2c(C)cc(=O)oc2c1 [ENKISYQ, Glu-Asn-Lys-Ile-Ser-Tyr-Gln] ({Morpholide-CO}-ENKISYQ-{AMC}) = 3.18
CC[C@H](C)[C@H](NC(=O)[C@H](CCCCN)NC(=O)[C@H](CC(N)=O)NC(=O)[C@H](CCC(N)=O)NC(=O)N1CCOCC1)C(=O)N[C@@H](CO)C(=O)N[C@@H](Cc1ccc(O)cc1)C(=O)N[C@@H](CCC(N)=O)C(=O)Nc1ccc2c(C)cc(=O)oc2c1 [QNKISYQ, Gln-Asn-Lys-Ile-Ser-Tyr-Gln] ({Morpholide-CO}-QNKISYQ-{AMC}) = 5.54

Lab book: picomles AMC released/minute: Goat of Cc1cc(=O)oc2cc(NC(=O)[C@H](Cc3c[nH]cn3)NC(=O)[C@H](CCC(N)=O)NC(=O)[C@H](CCCCN)NC(=O)[C@H](CO)NC(=O)[C@H](CCCCN)NC(=O)[C@@H](NC(=O)[C@H](C)NC(=O)N3CCOCC3)[C@@H](C)O)ccc12 [ATKSKQH, Ala-Thr-Lys-Ser-Lys-Gln-His] ({Morpholide-CO}-ATKSKQH-{AMC}) noted as 0.35
